All figures here come from ChEMBL document CHEMBL3046580.

tested on: Aspergillus niger; assay: Antifungal activity against Aspergillus niger assessed as fungus colony inhibition at 1000 ppm measured after 96 hr by agar dilution method; assay type: functional

>  <MOLECULE>
CC(=O)NC(=S)Nc1nnc(COc2ccc(C)cc2C)s1

>  <inhibition at 1000 ppm / %>
55.2

$$$$
>  <MOLECULE>
Cc1ccc(OCc2nn3c(=O)c4ccccc4nc3s2)cc1

>  <inhibition at 1000 ppm / %>
46

$$$$
>  <MOLECULE>
O=C(O)c1ccccc1Nc1nnc(COc2ccc(Cl)cc2Cl)s1

>  <inhibition at 1000 ppm / %>
84.8

$$$$
>  <MOLECULE>
Cc1ccc(OCc2nn3c(-c4ccc(Cl)cc4)nc(=S)nc3s2)c(C)c1

>  <inhibition at 1000 ppm / %>
52.3

$$$$
>  <MOLECULE>
Cc1ccc(OCc2nnc(Nc3ccccc3C(=O)O)s2)cc1

>  <inhibition at 1000 ppm / %>
52.2

$$$$
>  <MOLECULE>
S=c1nc(COc2ccc(Cl)cc2Cl)n2nc(COc3ccc(Cl)cc3)sc2n1

>  <inhibition at 1000 ppm / %>
87.2

$$$$
>  <MOLECULE>
Cc1ccc(OCc2nn3c(=O)c4ccccc4nc3s2)cc1C

>  <inhibition at 1000 ppm / %>
42.2

$$$$
>  <MOLECULE>
Cc1ccc(OCc2nn3c(C)nc(=S)nc3s2)c(C)c1

>  <inhibition at 1000 ppm / %>
51.4

$$$$
>  <MOLECULE>
Cc1ccc(OCc2nnc(Nc3ccccc3C(=O)O)s2)cc1C

>  <inhibition at 1000 ppm / %>
50.2

$$$$
>  <MOLECULE>
O=c1c2ccccc2nc2sc(COc3ccc(Cl)cc3Cl)nn12

>  <inhibition at 1000 ppm / %>
43.1

$$$$
>  <MOLECULE>
O=C(COc1ccc(Cl)cc1Cl)NC(=S)Nc1nnc(COc2ccc(Cl)cc2Cl)s1

>  <inhibition at 1000 ppm / %>
46.4

$$$$
>  <MOLECULE>
Cc1ccc(OCc2nnc(NC(=S)NC(=O)c3ccc(Cl)cc3)s2)c(C)c1

>  <inhibition at 1000 ppm / %>
50.3

$$$$
>  <MOLECULE>
O=C(COc1ccc(Cl)cc1Cl)NC(=S)Nc1nnc(COc2ccc(Cl)cc2)s1

>  <inhibition at 1000 ppm / %>
47

$$$$
>  <MOLECULE>
S=c1nc(COc2ccc(Cl)cc2Cl)n2nc(COc3ccc(Cl)cc3Cl)sc2n1

>  <inhibition at 1000 ppm / %>
88.6

$$$$
>  <MOLECULE>
COC(=O)Nc1nc2ccccc2[nH]1

>  <inhibition at 1000 ppm / %>
98.8

$$$$
>  <MOLECULE>
O=C(O)c1ccccc1Nc1nnc(COc2ccccc2Cl)s1

>  <inhibition at 1000 ppm / %>
47.3

$$$$
>  <MOLECULE>
O=c1c2ccccc2nc2sc(COc3ccccc3Cl)nn12

>  <inhibition at 1000 ppm / %>
51.3

$$$$

* * *

test system: Triticum aestivum; test: Herbicidal activity against Triticum aestivum (wheat) assessed as killing at 6 kg/ha by post-emergent activity assay; type: functional
Lab note: compare Activity with 50%, writing yes (1) if less and no (0) if equal or more.

>  <MOLECULE>
Cc1ccc(OCc2nn3c(=O)c4ccccc4nc3s2)cc1C

>  <LABEL_CLASS>
yes (1)

$$$$
>  <MOLECULE>
Cc1ccc(OCc2nn3c(-c4ccc(Cl)cc4)nc(=S)nc3s2)c(C)c1

>  <LABEL_CLASS>
yes (1)

$$$$
>  <MOLECULE>
Cc1ccc(OCc2nn3c(=O)c4ccccc4nc3s2)cc1

>  <LABEL_CLASS>
yes (1)

$$$$
>  <MOLECULE>
O=c1c2ccccc2nc2sc(COc3ccccc3Cl)nn12

>  <LABEL_CLASS>
no (0)

$$$$
>  <MOLECULE>
S=c1nc(COc2ccc(Cl)cc2Cl)n2nc(COc3ccc(Cl)cc3Cl)sc2n1

>  <LABEL_CLASS>
yes (1)

$$$$
